Tested on: SNB-19 CNS
test: NCI-60 one-dose screen, 48 h
measurement.setup: 10 µM unless noted
About 83,000 compounds went through this panel and 20% of them were active in at least one assay; those are over-represented in the sample as a whole. Active and inactive are the calls of the source. How the source made its calls: active means growth percent below 10; inactive means the rest.
Classes used: active, inactive

>  <smiles.code>
O=[N+]([O-])c1ccc(OCc2ccc(S(=O)(=O)F)c(Cl)c2)c(Cl)c1

>  <discrete.label>
inactive

$$$$
>  <smiles.code>
C[C@]12CCc3sc(Nc4ccc(OC(F)(F)F)cc4)nc3C1=CC[C@@H]1[C@@H]2CC[C@]2(C)C(=O)CC[C@@H]12

>  <discrete.label>
inactive

$$$$
>  <smiles.code>
CCCCCCCCCCCCCCCC[N+](C)(C)Cc1ccccc1

>  <discrete.label>
active

$$$$
>  <smiles.code>
O=C(Cc1ccccc1)c1ccccc1

>  <discrete.label>
inactive

$$$$
>  <smiles.code>
COc1cc(/C=C\[N+](=O)[O-])ccc1OCc1ccccc1

>  <discrete.label>
inactive

$$$$
>  <smiles.code>
CSc1cc(/C=C(\C)[C@@H]2C[C@@H]3O[C@]3(C)CCC[C@H](C)[C@H](O)[C@@H](C)C(=O)C(C)(C)[C@@H](O)CC(=O)O2)n(CCNC(=O)OC(C)(C)C)n1

>  <discrete.label>
inactive

$$$$

###

System: KM12 colon
test: NCI-60 one-dose screen, 48 h (100 = growth as untreated, 0 = no growth, -100 = all killed)
measurement.setup: 10 µM unless noted
About 83,000 compounds went through this panel and 20% of them were active in at least one assay; those are over-represented in the sample as a whole.
In plain terms, low growth, meaning strictly below 90%, gives criterion met, and everything else gives criterion not met.

>  <molecule>
C[C@]12CCC3[C@@H](C[C@@H]4SC(Nc5ccccc5)=N[C@@]45CC(=O)CC[C@]35C)[C@@H]1CCC2=O (some centres not stated)

>  <discrete.label>
criterion met

$$$$
>  <molecule>
CN1CCN(c2ccc(Cl)cc2)CC1

>  <discrete.label>
criterion not met

$$$$
>  <molecule>
CC(=O)Cc1ccc2c(c1)OCO2

>  <discrete.label>
criterion not met

$$$$
>  <molecule>
c1ccc2c(c1)sc1ccccc12

>  <discrete.label>
criterion not met

$$$$
>  <molecule>
O=[N+]([O-])c1ccc(P(=O)(O)O)cc1

>  <discrete.label>
criterion not met

$$$$
>  <molecule>
C[C@]12CCc3sc(Nc4ccc(O)cc4)nc3C1=CC[C@@H]1[C@@H]2CC[C@]2(C)C(=O)CC[C@@H]12

>  <discrete.label>
criterion met

$$$$
>  <molecule>
O=C/C=C/c1ccco1

>  <discrete.label>
criterion not met

$$$$
>  <molecule>
COc1cc(/C=C\[N+](=O)[O-])ccc1OCc1ccccc1

>  <discrete.label>
criterion met

$$$$
>  <molecule>
CO/N=C1\CC[C@]2(C)[C@H]3CC[C@]4(C)C(=O)CC[C@H]4[C@@H]3C[C@@H]3SC(N)=N[C@@]32C1

>  <discrete.label>
criterion not met

$$$$
>  <molecule>
CCOC(=O)C1C(C=C(C)C)C1(C)C (configuration not stated)

>  <discrete.label>
criterion not met

$$$$
>  <molecule>
COC(=O)C1=CO[C@@H](C)[C@@H]2CN3CCc4c([nH]c5cc(OC)ccc45)[C@@H]3C[C@H]12

>  <discrete.label>
criterion not met

$$$$
>  <molecule>
Cc1ccc(P(=O)(O)O)cc1

>  <discrete.label>
criterion not met

$$$$
>  <molecule>
Cc1nnc([S-])o1.[Au+].c1ccc([PH+](c2ccccc2)c2ccccc2)cc1

>  <discrete.label>
criterion met

$$$$
>  <molecule>
O=[P+](O)c1cccnc1

>  <discrete.label>
criterion not met

$$$$
>  <molecule>
COc1ccc(O)c2c(=O)c3c(OC)cc4c(c3oc12)[C@@H]1C=CO[C@@H]1O4

>  <discrete.label>
criterion met

$$$$
>  <molecule>
CC1=C([Te]c2ccccc2)C(=O)c2ccccc2C1=O

>  <discrete.label>
criterion met

$$$$
>  <molecule>
Nc1ccc2c(c1)Cc1cc(N)ccc1-2

>  <discrete.label>
criterion met

$$$$
>  <molecule>
CNC(=O)O/N=C(\SC)C(=O)N(C)C

>  <discrete.label>
criterion not met

$$$$
>  <molecule>
ClCc1ccc(Cl)c(Cl)c1

>  <discrete.label>
criterion not met

$$$$
>  <molecule>
Cc1ccccc1-n1c(/C=C\c2ccccn2)nc2ccccc2c1=O

>  <discrete.label>
criterion met

$$$$
>  <molecule>
C[C@]12CC[C@@H](OC(=O)N(CCCl)N=O)C[C@@H]1CC[C@@H]1[C@@H]2CC[C@]2(C)C(=O)CC[C@@H]12

>  <discrete.label>
criterion met

$$$$
>  <molecule>
COc1ccc(N(CC(=O)NCCC[Te]c2ccccc2)C(=O)c2ccccc2)cc1

>  <discrete.label>
criterion met

$$$$
>  <molecule>
Cc1cc[c-]cc1.Fc1c[c-]c(-c2ccccn2)c(F)c1.[Pt+2].c1ccc([PH+](c2ccccc2)c2ccccn2)cc1

>  <discrete.label>
criterion met

$$$$
>  <molecule>
O=C(CBr)OCCOC(=O)CBr

>  <discrete.label>
criterion not met

$$$$
>  <molecule>
CC(C)CCC1C(=O)NC(=O)NC1=O

>  <discrete.label>
criterion not met

$$$$
>  <molecule>
O=C(O)c1ccccc1N(CCO)CCCl

>  <discrete.label>
criterion not met

$$$$
>  <molecule>
CC/C(=C(\c1ccc(OCCN2CCOCC2)cc1)c1ccc(OC(=O)Cc2ccccc2)cc1)c1ccc(Cl)cc1

>  <discrete.label>
criterion not met

$$$$
>  <molecule>
O=C1CN2CCC1CC2

>  <discrete.label>
criterion not met

$$$$
>  <molecule>
O=[N+]([O-])c1ccc2scc3c4ccccc4nc-3c2c1

>  <discrete.label>
criterion met

$$$$
>  <molecule>
CN1[C@@H](CC(=O)c2ccccc2)CCC[C@H]1CC(=O)c1ccccc1

>  <discrete.label>
criterion not met

$$$$
>  <molecule>
COC(=O)C12C3C4C1C1C2C3C41NC(=O)c1csc([C@@H](C[C@H](C(C)C)N(C)C(=O)[C@@H](NC(=O)[C@H]2CCCCN2C)C2CC2)OC(C)=O)n1 (some centres not stated)

>  <discrete.label>
criterion met

$$$$
>  <molecule>
C[C@]12CC[C@H]3[C@@H](CC=C4c5nc(-c6ccc(Br)cc6)sc5CC[C@@]43C)[C@@H]1CC[C@@H]2O

>  <discrete.label>
criterion not met

$$$$
>  <molecule>
CC1(C)CN=C(NN=C(/C=C/c2ccc(C(F)(F)F)cc2)/C=C/c2ccc(C(F)(F)F)cc2)NC1

>  <discrete.label>
criterion met

$$$$
>  <molecule>
Oc1ccccc1C=NCCN=Cc1ccccc1O.[Fe]

>  <discrete.label>
criterion not met

$$$$
>  <molecule>
CCCN1C(=O)NC(=O)C(CC)(N2C(=O)c3c(F)c(F)c(F)c(F)c3C2=O)C1=O (configuration not stated)

>  <discrete.label>
criterion met

$$$$
>  <molecule>
C[C@@]12CCCc3coc(c31)C(=O)c1cc3c(cc12)C(=O)C1=C(NCCS1(=O)=O)C3=O

>  <discrete.label>
criterion met

$$$$

###

Tested on: IGROV1 ovarian
test: NCI-60 one-dose screen, 48 h
measurement.setup: 10 µM unless noted
This is part of a sample that, as a whole, favours compounds with a hit. Of some 83,000 tested, about 20% had one in any assay. Active and inactive are the calls of the source. How the source made its calls: active means growth percent below 10; inactive means the rest.
Classes used: active, inactive

>  <molecule>
CC[C@H](CC[C@@H](C)[C@H]1CC[C@H]2[C@@H]3CC[C@H]4C[C@]5(CC[C@]4(C)[C@H]3CC[C@]12C)OO[C@](C)(C(F)(F)F)O5)C(C)C

>  <discrete.label>
inactive

$$$$
>  <molecule>
Nc1nc(=S)nc(N)[nH]1

>  <discrete.label>
inactive

$$$$
>  <molecule>
CC/C(=C(\c1ccc(OCCN2CCOCC2)cc1)c1ccc(OC(=O)Cc2ccccc2)cc1)c1ccc(Cl)cc1

>  <discrete.label>
inactive

$$$$
>  <molecule>
O=C1CCCCC1CN1CCCCC1 (stereo unspecified)

>  <discrete.label>
inactive

$$$$
>  <molecule>
CCCN1C(=O)NC(=O)C(CC)(N2C(=O)c3c(F)c(F)c(F)c(F)c3C2=O)C1=O (stereo unspecified)

>  <discrete.label>
active

$$$$
>  <molecule>
CNC(=O)Oc1ccc(Cl)cc1SSc1cc(Cl)ccc1OC(=O)NC

>  <discrete.label>
inactive

$$$$

This collection of values is drawn from PubChem BioAssay (NCI).
